# protocol.text: In vitro inhibitory activity against human adrenal 3-beta hydroxy-delta 5-teroid isomerase
# reported Ki; entries follow
readout.type: Ki (nM)

compound: CC(C)CC(=O)[C@H]1CCC2C3CN(C)C4=CC(=O)CC[C@]4(C)C3CC[C@@]21C (some centres not stated)
readout.type: Ki
reading: 1.1

compound: CCN(CC)C(=O)[C@H]1CCC2C3CNC4=C(Br)C(=O)CC[C@]4(C)C3CC[C@@]21C (some centres not stated)
readout.type: Ki
reading: 13

compound: CN1CC2C(CC[C@@]3(C)C2CC[C@@H]3C(=O)NC(c2ccccc2)c2ccccc2)[C@@]2(C)CCC(=O)C=C12 (some centres not stated)
readout.type: Ki
reading: 11

compound: CCC1=C2NCC3C(CC[C@@]4(C)C3CC[C@@H]4C(=O)N(CC)CC)[C@@]2(C)CCC1=O (some centres not stated)
readout.type: Ki
reading: 47

compound: C[C@]12CCC(=O)C=C1NCC1C2CC[C@@]2(C)C1CC[C@@H]2C(=O)N1CCOCC1 (some centres not stated)
readout.type: Ki
reading: 190

compound: CCN(CC)C(=O)[C@H]1CCC2C3CN(C)C4=CC(=O)C=C[C@]4(C)C3CC[C@@]21C (some centres not stated)
readout.type: Ki
reading: 22

compound: CCN(CC)C(=O)[C@H]1CCC2C3CN(C#N)C4=CC(=O)CC[C@]4(C)C3CC[C@@]21C (some centres not stated)
readout.type: Ki
reading: 1500

compound: CC(C)(C)NC(=O)[C@H]1CCC2C3CN=C4C=C(O)C5CC5[C@]4(C)C3CC[C@@]21C (some centres not stated)
readout.type: Ki
reading: 300

compound: CN1CC2C(CC[C@@]3(C)C2CC[C@@H]3C(=O)NC23CC4CC(CC(C4)C2)C3)[C@@]2(C)CCC(=O)C=C12 (some centres not stated)
readout.type: Ki
reading: 2.7

compound: CC(C)(C)N(O)C(=O)[C@H]1CCC2C3CNC4=CC(=O)CC[C@]4(C)C3CC[C@@]21C (some centres not stated)
readout.type: Ki
reading: 62

compound: CCN(CC)C(=O)[C@H]1CC[C@H]2[C@@H]3CC[C@H]4N(C)C(=O)CC[C@]4(C)[C@H]3CC[C@]12C
readout.type: Ki
reading: 20

compound: C[C@]12CCC(=O)C=C1NCC1C2CC[C@@]2(C)C1CC[C@@H]2C(=O)c1c(F)cccc1F (some centres not stated)
readout.type: Ki
reading: 11

compound: CCCCN1CC2C(CC[C@@]3(C)C2CC[C@@H]3C(=O)N(CC)CC)[C@@]2(C)CCC(=O)C=C12 (some centres not stated)
readout.type: Ki
reading: 3600

compound: CC1=C2N(C)CC3C(CC[C@@]4(C)C3CC[C@@H]4C(=O)NC(C)(C)C)[C@@]2(C)CCC1=O (some centres not stated)
readout.type: Ki
reading: 23

compound: CCN(CC)C(=O)[C@H]1CCC2C3CN=C4C=C(O)C5CC5[C@]4(C)C3CC[C@@]21C (some centres not stated)
readout.type: Ki
reading: 95

compound: C[C@]12C=CC(=O)C=C1NCC1C2CC[C@@]2(C)C1CC[C@@H]2C(=O)NC12CC3CC(CC(C3)C1)C2 (some centres not stated)
readout.type: Ki
reading: 1000

compound: CN1CC2C(CC[C@@]3(C)C2CC[C@@H]3C(=O)NC(C)(C)C)[C@@]2(C)CCC(=O)C=C12 (some centres not stated)
readout.type: Ki
reading: 6.6

compound: CC1=C2N(C)CC3C(CC[C@@]4(C)C3CC[C@@H]4C(=O)NC34CC5CC(CC(C5)C3)C4)[C@@]2(C)CCC1=O (some centres not stated)
readout.type: Ki
reading: 18

compound: COC(=O)[C@H]1CCC2C3CNC4=CC(=O)CC[C@]4(C)C3CC[C@@]21C (some centres not stated)
readout.type: Ki
reading: 12

compound: CCCCCCCCC(=O)[C@H]1CCC2C3CNC4=CC(=O)CC[C@]4(C)C3CC[C@@]21C (some centres not stated)
readout.type: Ki
reading: 7.5

compound: CC(C)(C)NC(=O)[C@H]1CCC2C3CNC4=CC(=O)C=C[C@]4(C)C3CC[C@@]21C (some centres not stated)
readout.type: Ki
reading: 2200

compound: CCN(CC)C(=O)[C@H]1CCC2C3CN(CC)C4=CC(=O)CC[C@]4(C)C3CC[C@@]21C (some centres not stated)
readout.type: Ki
reading: 49

compound: CCN(CC)C(=O)[C@H]1CCC2C3CNC4=C(C)C(=O)C=C[C@]4(C)C3CC[C@@]21C (some centres not stated)
readout.type: Ki
reading: 91

compound: C[C@]12CCC(=O)C=C1NCC1C2CC[C@@]2(C)C1CC[C@@H]2C(=O)NC(c1ccc(Cl)cc1)c1ccc(Cl)cc1 (some centres not stated)
readout.type: Ki
reading: 510

compound: C[C@]12CC[C@H]3[C@@H](CNC4=CC(=O)CC[C@@]43C)[C@@H]1CC[C@@H]2C(=O)OC1[C@H]2C[C@@H]3C[C@@H](C[C@H]1C3)C2 (some centres not stated)
readout.type: Ki
reading: 180

compound: CC1=C2NCC3C(CC[C@@]4(C)C3CC[C@@H]4C(=O)NC(c3ccccc3)c3ccccc3)[C@@]2(C)CCC1=O (some centres not stated)
readout.type: Ki
reading: 18

compound: CCN(CC)C(=O)[C@H]1CCC2C3CN(C)C4=CC(=O)C5CC5[C@]4(C)C3CC[C@@]21C (some centres not stated)
readout.type: Ki
reading: 10

compound: C[C@]12CCC(=O)C=C1NCC1C2CC[C@@]2(C)C1CC[C@@H]2C(=O)NC(C1CCCCC1)C1CCCCC1 (some centres not stated)
readout.type: Ki
reading: 4000

compound: CCN(CC)C(=O)[C@H]1CCC2C3CN(C)C4=CC(=O)CC[C@]4(C)C3CC[C@@]21C (some centres not stated)
readout.type: Ki
reading: 3.6

compound: CCN(CC)C(=O)[C@H]1CCC2C3CNC4=C(Cl)C(=O)CC[C@]4(C)C3CC[C@@]21C (some centres not stated)
readout.type: Ki
reading: 27

compound: CCN(CC)C(=O)[C@H]1CCC2C3CN(CC(=O)O)C4=CC(=O)CC[C@]4(C)C3CC[C@@]21C (some centres not stated)
readout.type: Ki
reading: 180

compound: CC(C)(C)NC(=O)[C@H]1CC[C@H]2[C@@H]3CC[C@H]4NC(=O)C=C[C@]4(C)[C@H]3CC[C@]12C [FINASTERIDE]
readout.type: Ki
reading: 11000

====

# protocol.text: Half-life after intravenous administration of 5 mg/kg/day dose in male beagles
# Format: ADME, organism-based, Canis lupus familiaris
# Set-up: route intravenous
# test.settings: beagle, dog, in vivo

compound: C[C@]12CCC(=O)C=C1NCC1C2CC[C@@]2(C)C1CC[C@@H]2C(=O)NC(c1ccccc1)c1ccccc1 (some centres undefined)
half-life, h: 4.8
--
compound: CC(C)CC(=O)[C@H]1CCC2C3CN(C)C4=CC(=O)CC[C@]4(C)C3CC[C@@]21C (some centres undefined)
half-life, h: 2.2
--
compound: C[C@]12CCC(=O)C=C1NCC1C2CC[C@@]2(C)C1CC[C@@H]2C(=O)NC(c1ccc(F)cc1)c1ccc(F)cc1 (some centres undefined)
half-life, h: 5.2
--
compound: C[C@]12CCC(=O)C=C1NCC1C2CC[C@@]2(C)C1CC[C@@H]2C(=O)NC(c1ccc(Cl)cc1)c1ccc(Cl)cc1 (some centres undefined)
half-life, h: 12

====

# protocol.text: In vitro inhibitory activity against human adrenal 3-beta hydroxy-delta 5-teroid isomerase
readout.type: log10(Ki) (log10 of the value in µM)

compound: CCN(CC)C(=O)[C@H]1CCC2C3CN(C)C4=C(C)C(=O)CC[C@]4(C)C3CC[C@@]21C (stereo partly drawn)
log10(Ki): -1.96

compound: C[C@]12CCC(=O)C=C1NCC1C2CC[C@@]2(C)C1CC[C@@H]2C(=O)NC(c1ccc(F)cc1)c1ccc(F)cc1 (stereo partly drawn)
log10(Ki): -0.49

compound: CCN(CC)C(=O)[C@H]1CCC2C3CNC4=CC(=O)C=C[C@]4(C)C3CC[C@@]21C (stereo partly drawn)
log10(Ki): -1.10

compound: CN1CC2C(CC[C@@]3(C)C2CC[C@@H]3C(=O)NC23CC4CC(CC(C4)C2)C3)[C@@]2(C)CCC(=O)C(Br)=C12 (stereo partly drawn)
log10(Ki): -2.08

compound: C[C@]12CCC(=O)C=C1NCC1C2CC[C@@]2(C)C1CC[C@@H]2C(=O)NC(c1ccccc1)c1ccccc1 (stereo partly drawn)
log10(Ki): -0.82

compound: CCCCCCN1CC2C(CC[C@@]3(C)C2CC[C@@H]3C(=O)N(CC)CC)[C@@]2(C)CCC(=O)C=C12 (stereo partly drawn)
log10(Ki): 1.04

compound: CCCN1CC2C(CC[C@@]3(C)C2CC[C@@H]3C(=O)NC(c2ccccc2)c2ccccc2)[C@@]2(C)C=CC(=O)C=C12 (stereo partly drawn)
log10(Ki): -0.74

compound: CCCC(=O)[C@H]1CCC2C3CNC4=CC(=O)CC[C@]4(C)C3CC[C@@]21C (stereo partly drawn)
log10(Ki): -1.96

Origin of values: ChEMBL document CHEMBL1127590
